Exercise: state measured koff for each of the binders provided.
target: T1, Homo sapiens factor Bb protein (human, UniProt P00751 260-764); test: SPR single cycle kinetics, IgG on Protein A chip, factor Bb analyte
T1 construct: Bought from CompTech (A155); also called complement factor Bb; human factor Bb
T1 sequence (P00751 260-764 limits assumed): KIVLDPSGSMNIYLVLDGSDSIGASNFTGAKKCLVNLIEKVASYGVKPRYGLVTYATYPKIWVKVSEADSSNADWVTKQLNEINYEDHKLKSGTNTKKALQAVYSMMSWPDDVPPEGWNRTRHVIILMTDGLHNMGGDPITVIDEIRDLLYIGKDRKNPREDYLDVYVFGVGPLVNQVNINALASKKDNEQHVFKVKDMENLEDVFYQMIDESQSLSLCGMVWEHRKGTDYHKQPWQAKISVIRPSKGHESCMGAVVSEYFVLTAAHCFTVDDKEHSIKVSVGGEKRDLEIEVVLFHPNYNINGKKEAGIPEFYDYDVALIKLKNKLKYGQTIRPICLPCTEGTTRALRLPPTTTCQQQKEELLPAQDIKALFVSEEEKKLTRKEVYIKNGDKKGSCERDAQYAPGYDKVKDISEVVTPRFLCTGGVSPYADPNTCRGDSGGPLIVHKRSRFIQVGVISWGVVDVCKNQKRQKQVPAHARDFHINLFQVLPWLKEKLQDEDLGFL
One number for each entry, in s⁻¹.

BINDER	MEASURED_RESULT
VH2/Vκ4 (antibody, V domains shown) VH: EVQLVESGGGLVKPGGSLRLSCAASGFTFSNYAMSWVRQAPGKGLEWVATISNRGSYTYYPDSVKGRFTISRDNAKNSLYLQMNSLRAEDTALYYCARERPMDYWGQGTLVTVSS VL: DIQMTQSPSTLSASVGDRVTITCRASQDVGTAVAWYQQKPGQPPKLLIYWASTRHTGVPDRFSGSGSGTDFTLTISSLQAEDFAVYYCHQHSSNPLTFGQGTKLEIK	0.00368
VH1/Vκ5 (antibody, V domains shown) VH: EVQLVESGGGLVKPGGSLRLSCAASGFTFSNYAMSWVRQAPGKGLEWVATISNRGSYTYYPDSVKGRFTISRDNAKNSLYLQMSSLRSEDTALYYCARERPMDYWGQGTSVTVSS VL: DIQMTQSPSTLSASVGDRVTITCRASQDVGTAVAWYQQKPGQPPKLLIYWASTRHTGVPDRFSGSGSGTDFTLTISSLQAEDFATYYCHQHSSNPLTFGQGTKLEIK	0.00201
VH1/Vκ3 (antibody, V domains shown) VH: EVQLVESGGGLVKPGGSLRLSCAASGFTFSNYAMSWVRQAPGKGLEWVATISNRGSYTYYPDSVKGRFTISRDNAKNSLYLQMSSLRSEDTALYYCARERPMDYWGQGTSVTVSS VL: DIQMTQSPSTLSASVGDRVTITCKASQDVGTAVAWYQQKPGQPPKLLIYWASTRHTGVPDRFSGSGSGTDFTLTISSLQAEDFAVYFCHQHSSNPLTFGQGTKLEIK	0.00263
VH1/Vκ1 (antibody, V domains shown) VH: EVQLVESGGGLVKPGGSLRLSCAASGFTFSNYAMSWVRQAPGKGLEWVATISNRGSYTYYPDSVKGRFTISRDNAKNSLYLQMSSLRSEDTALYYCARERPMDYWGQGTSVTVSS VL: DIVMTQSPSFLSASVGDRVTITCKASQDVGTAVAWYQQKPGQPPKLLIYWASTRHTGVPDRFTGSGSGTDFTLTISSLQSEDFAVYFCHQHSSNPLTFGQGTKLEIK	0.00287
VH2/Vκ3 (antibody, V domains shown) VH: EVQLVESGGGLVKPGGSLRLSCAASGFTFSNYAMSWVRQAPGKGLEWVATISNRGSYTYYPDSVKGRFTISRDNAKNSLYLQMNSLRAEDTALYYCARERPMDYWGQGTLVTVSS VL: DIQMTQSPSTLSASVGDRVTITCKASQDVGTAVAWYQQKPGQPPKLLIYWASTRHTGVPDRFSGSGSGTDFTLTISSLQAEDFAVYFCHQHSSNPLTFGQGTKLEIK	0.00307

// moving on: another record for koff
IN: What does the data say about its koff? Entry: VH3/Vκ2 (antibody, V domains shown) VH: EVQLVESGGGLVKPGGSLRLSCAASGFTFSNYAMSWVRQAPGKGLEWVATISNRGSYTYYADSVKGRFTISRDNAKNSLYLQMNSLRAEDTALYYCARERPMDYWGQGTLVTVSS VL: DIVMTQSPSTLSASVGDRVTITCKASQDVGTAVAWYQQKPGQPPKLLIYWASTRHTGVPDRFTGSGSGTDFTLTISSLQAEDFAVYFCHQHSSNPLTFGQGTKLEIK
OUT: 0.00377
